These data points were gathered from paper PMC5343222.

test: DPPH radical scavenging assay; conditions: 15 min incubation in the dark; mean ± SEM
resultType: pIC50
Hey, just a heads up that pIC50 is the negative log base 10 of the concentration in molar.

QUERY: Consider the molecule O=C1O[C@H]([C@@H](O)CO)C(O)=C1O [L-ascorbic acid, reference compound] and give its measured pIC50.
RESULT: 4.26

QUERY: # query: pIC50 of entry O=C(/C=C/c1ccc(O)c(O)c1)OC[C@H]1O[C@@H](OCCc2ccc(O)c(O)c2)[C@H](O)[C@@H](O)[C@@H]1O [Compound 4, calceolarioside B]
RESULT: 4.02

QUERY: Query (molecule): O=c1c(O[C@@H]2O[C@H](CO)[C@@H](O)[C@H](O)[C@H]2O)c(-c2ccc(O)c(O)c2)oc2cc(O)cc(O)c12 [Compound 6, quercetin-3-O-β-D-glucopyranoside] ; field requested: pIC50
RESULT: 3.91

---

Could you please report measured IC50 for the items listed next?

QUERY: Provide value of IC50 for this record tested with UniProt P07943: O=c1cc(-c2ccc(O)c(O)c2)oc2cc(O[C@@H]3O[C@H](CO)[C@@H](O)[C@H](O)[C@H]3O)cc(O)c12 [luteolin-7-O-β-D-glucopyranoside]
RESULT: 7.34 to 24 µM

QUERY: Could you share what IC50 was measured for O=c1c(O[C@@H]2O[C@H](CO)[C@@H](O)[C@H](O)[C@H]2O)c(-c2ccc(O)c(O)c2)oc2cc(O)cc(O)c12 [quercetin-3-O-β-D-glucopyranoside] , tested on UniProt P07943?
RESULT: 7.34 to 24 µM

QUERY: For the record O=c1cc(-c2ccc(O)c(O[C@@H]3O[C@H](CO)[C@@H](O)[C@H](O)[C@H]3O)c2)oc2cc(O)cc(O)c12 [luteolin-3′-O-β-D-glucopyranoside] , what value of IC50 is listed for UniProt P07943?
RESULT: 7.34 to 24 µM

---

Assay read-out IC50; system under study: UniProt:P07943.
// units = µM; emit number, no label

QUERY: Record lookup: for UniProt:P07943, what IC50 belongs to O=c1c(O[C@@H]2O[C@H](CO)[C@@H](O)[C@H](O)[C@H]2O)c(-c2ccc(O)c(O)c2)oc2cc(O)cc(O)c12 [Compound 6, quercetin-3-O-β-D-glucopyranoside] ?
RESULT: 10.4

QUERY: Form field: IC50 recorded for O=c1cc(-c2ccc(O)c(O)c2)oc2cc(O[C@@H]3O[C@H](CO)[C@@H](O)[C@H](O)[C@H]3O)cc(O)c12 [Compound 7, luteolin-7-O-β-D-glucopyranoside] with UniProt:P07943 (enter value)
RESULT: 16.1

QUERY: # get_value(readout= IC50, system= UniProt:P07943) for O=C(/C=C/c1ccc(O)c(O)c1)OC[C@H]1O[C@@H](OCCc2ccc(O)c(O)c2)[C@H](O)[C@@H](O)[C@@H]1O [Compound 4, calceolarioside B]
RESULT: 24

QUERY: For UniProt:P07943, provide IC50 of O=c1cc(-c2ccc(O)c(O[C@@H]3O[C@H](CO)[C@@H](O)[C@H](O)[C@H]3O)c2)oc2cc(O)cc(O)c12 [Compound 5, luteolin-3′-O-β-D-glucopyranoside] please.
RESULT: 7.34
